Kindly supply the reported Ki values for the records listed here.
Molecular target: rat orexin 1 receptor (Rattus norvegicus, UniProt P56718)
Assay: Rat orexin 1 receptor radioligand binding
Conditions: rat orexin 1 receptor radioligand binding; averages of 2-20 runs; read-out: rOX1 Ki
Give bare numbers, in nM.

# example entries with known answers
Molecule: C[C@H]1[C@H](Nc2ccc(C(F)(F)F)cn2)CCCN1C(=O)c1ncccc1-c1ncccn1 (relative stereo) [Example 265]
Ki [nM]: 16
--
Molecule: C[C@H]1[C@H](Oc2cnc(C(F)(F)F)cn2)CCCN1C(=O)c1ccccc1-c1ncc(F)cn1 [Example 166]
Ki [nM]: 97

Below is a list of molecules. For each, state its recorded Ki.
1. Cc1cnc(-c2ncccn2)c(C(=O)N2CCC[C@@H](Oc3ccc(Cl)cn3)[C@@H]2C)c1 [Example 217]
2. C[C@H]1[C@H](Oc2cnc(C(F)(F)F)cn2)CCCN1C(=O)c1ccccc1-n1nccn1 [Example 106]
3. C[C@H]1[C@H](Oc2cnc(C(F)(F)F)cn2)CCCN1C(=O)c1nccnc1-c1ccccc1 [Example 173]
4. C[C@H]1[C@H](Oc2cnc(C(F)(F)F)cn2)CCCN1C(=O)c1cc(F)ccc1-c1ncco1 [Example 179]

Reply |
1: 177; 2: 44; 3: 423; 4: 100

Please state Ki for every molecule in the list that follows.
1. C[C@H]1[C@H](Oc2ccc(C(F)(F)F)cn2)CCCN1C(=O)c1ccccc1-c1ncccn1 [Example 143]
2. Cc1cnc(-n2nccn2)c(C(=O)N2CCC[C@@H](Oc3cnc(C(F)(F)F)cn3)[C@@H]2C)c1 [Example 177]
3. Cc1cnc(C(=O)N2CCC[C@@H](N(C)c3nc4ccccc4o3)[C@@H]2C)c(-n2nccn2)c1 (relative stereo) [Example 187]
4. COc1ccc(-n2nccn2)c(C(=O)N2CCC[C@@H](Nc3cnc(C(F)(F)F)cn3)[C@@H]2C)c1 (relative stereo) [Example 184]
5. C[C@H]1[C@H](Oc2ncc(C(F)(F)F)cn2)CCCN1C(=O)c1cc(F)ccc1-c1ncco1 [Example 175]
6. Cc1cccc(C(=O)N2CCC[C@@H](Oc3ncc(C(F)(F)F)cc3F)[C@@H]2C)c1-c1ncccn1 [Example 220]
7. Cc1cccc(C(=O)N2CCC[C@@H](Oc3cnc(C(F)(F)F)cn3)[C@@H]2C)c1-c1ncccn1 [Example 171]
8. Cc1ccc(-n2nccn2)c(C(=O)N2CCC[C@@H](Oc3ccc(Cl)cn3)[C@@H]2C)n1 [Example 215]

Reply |
[25, 238, 20, 7, 124, 23, 34, 12]

Cited source: patent US9611251B2
